system: Cryphonectria parasitica; assay: Fungicidal activity against Cryphonectria parasitica assessed as inhibition of fungal growth at 25 ug after 7 days; format: functional; conditions: 168 h, read-out: DIZ
Short version: zone of inhibition at 25 µg/disc at least 9 mm is Y, less is N.

Worked examples, 4 molecules total:
>>> print(df.to_string())
                      molecule  assignedclass
0          O=Cc1c[nH]c2ccccc12              Y
1      COC(=O)c1c[nH]c2ccccc12              N
2  CC(=O)NC(C)=O [DIACETAMIDE]              N
3      O=C(O)Cc1c[nH]c2ccccc12              Y

// next entry
Lookup: Given the entry "CC(C)=CCC[C@@](C)(O)[C@H]1CC[C@](C)(O)[C@@H]1C" , answer whether its zone of inhibition at 25 µg/disc meets or surpasses 9 mm.
Found: N
